Species: Homo sapiens
measurement description: Inhibition of human platelet aggregation induced by ADP after 3 min incubation with platelet rich plasma
Assay type: functional
settings: 0.05 h
pIC50: −log10 of the molar value.
Measured pIC50, listed per entry for reference.

# molecule, pIC50
records = [
    ("Cl.Oc1nc2cc3cc(OCCCc4nnnn4C4CCN(Cc5ccccc5)CC4)ccc3[nH]c-2n1", 7.41),
    ("CC(C)CN1CCC(S(=O)(=O)CCCOc2ccc3[nH]c4nc(O)nc-4cc3c2)CC1.Cl", 7.57),
    ("Cl.O=C(NCCCOc1ccc2[nH]c3nc(O)nc-3cc2c1)N1CCN(CC2CCCCO2)CC1 (centres undefined)", 6.80),
    ("Cl.Oc1nc2cc3cc(OCCCc4nnnn4C4CCN(CC5CCCCO5)CC4)ccc3[nH]c-2n1 (centres undefined)", 7.15),
]
